tested on: 454973-116-R2-J3-PDC spheroids, viability, % test/control; assay: Anticancer human tumor 454973-116-R2-J3-PDC patient-derived pancreatic carcinoma cell line growth inhibition [GQUAD]; conditions: second compound 10 µM; first compound 0.0316 µM; hits give low values; spheroids with HUVEC and MSC
value.type: viability, T/C (%)
Note: unit % is implicit; provide only the numeric part.

compound="O=C(NO)c1cnc(N2CCN(S(=O)(=O)c3ccc4ccccc4c3)CC2)nc1 + Cc1[nH]c2ccc(F)cc2c1-c1nc2c3cccnc3c3ncccc3c2[nH]1" scale_unit=% number=93.6
compound="CC(C)n1c(=O)n(C)c2cnc3cc(F)c(-c4ccc(OCCCN5CCCCC5)nc4)cc3c21 + CN(C)c1ccc(Nc2c3ccc(NC(=O)CCN4CCCC4)cc3nc3cc(NC(=O)CCN4CCCC4)ccc23)cc1" scale_unit=% number=76.9
compound="COc1cccc2c1C(=O)c1c(O)c3c(c(O)c1C2=O)CC(O)(C(=O)CO)CC3OC1CC(N)C(O)C(C)O1 (stereo unspecified) + Cc1[nH]c2ccc(F)cc2c1-c1nc2c3cccnc3c3ncccc3c2[nH]1" scale_unit=% number=81.9

Q: Recorded viability, T/C for O=c1[nH]cc(F)c(=O)[nH]1 + Cc1cnc(CNC(=O)c2c(=O)c3ccc(N4CCCN(C)CC4)nc3n3c2sc2ccccc23)cn1 , please?
A: 0.72

Q: Recorded viability, T/C for O=C(NO)c1cnc(N2CCN(S(=O)(=O)c3ccc4ccccc4c3)CC2)nc1 + Cc1cnc(CNC(=O)c2c(=O)c3ccc(N4CCCN(C)CC4)nc3n3c2sc2ccccc23)cn1 , please?
A: 0.19

Q: Recorded viability, T/C for O=C(NO)c1cnc(N2CCN(S(=O)(=O)c3ccc4ccccc4c3)CC2)nc1 + CN(C)c1ccc(Nc2c3ccc(NC(=O)CCN4CCCC4)cc3nc3cc(NC(=O)CCN4CCCC4)ccc23)cc1 , please?
A: 59.5

====

# viability, T/C listing for each entry below
tested on: 454973-116-R2-J3-PDC spheroids, viability, % test/control; test: Anticancer human tumor 454973-116-R2-J3-PDC cell line growth inhibition [GQUAD]; conditions: second compound 10 µM; first compound 0.00999 µM; hits give low values; spheroids with HUVEC and MSC;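 also: spheroids exposed to compounds for seven days; 100% = DMSO vehicle control viability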
Note: unit % is implicit; provide only the numeric part.

compound="Cn1ncnc1[C@H]1c2n[nH]c(=O)c3cc(F)cc(c23)N[C@@H]1c1ccc(F)cc1 + CN(C)c1ccc(Nc2c3ccc(NC(=O)CCN4CCCC4)cc3nc3cc(NC(=O)CCN4CCCC4)ccc23)cc1" study_target="454973-116-R2-J3-PDC spheroids, viability, % test/control" number=72.5

Q: Could you share what viability, T/C was measured for Cc1[nH]c2ccccc2c1CCNCc1ccc(/C=C/C(=O)NO)cc1 + Cc1cnc(CNC(=O)c2c(=O)c3ccc(N4CCCN(C)CC4)nc3n3c2sc2ccccc23)cn1 , tested on 454973-116-R2-J3-PDC spheroids, viability, % test/control?
A: 43.2

Q: Could you share what viability, T/C was measured for CCc1c2c(nc3ccc(O)cc13)-c1cc3c(c(=O)n1C2)COC(=O)[C@]3(O)CC + CN(C)c1ccc(Nc2c3ccc(NC(=O)CCN4CCCC4)cc3nc3cc(NC(=O)CCN4CCCC4)ccc23)cc1 , tested on 454973-116-R2-J3-PDC spheroids, viability, % test/control?
A: 24.9

Q: Could you share what viability, T/C was measured for Cc1[nH]c2ccccc2c1CCNCc1ccc(/C=C/C(=O)NO)cc1 + Cc1[nH]c2ccc(F)cc2c1-c1nc2c3cccnc3c3ncccc3c2[nH]1 , tested on 454973-116-R2-J3-PDC spheroids, viability, % test/control?
A: 92.3

Q: Could you share what viability, T/C was measured for CC[C@@]1(O)C(=O)OCc2c1cc1n(c2=O)Cc2cc3c(CN(C)C)c(O)ccc3nc2-1 + Cc1cnc(CNC(=O)c2c(=O)c3ccc(N4CCCN(C)CC4)nc3n3c2sc2ccccc23)cn1 , tested on 454973-116-R2-J3-PDC spheroids, viability, % test/control?
A: 57

====

# viability, T/C listing for each entry below
System: 454973-116-R2-J3-PDC spheroids, viability, % test/control
Assay: Anticancer human tumor 454973-116-R2-J3-PDC cell line growth inhibition [GQUAD];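 also: spheroids exposed to compounds for seven days; 100% = DMSO vehicle control viability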
Conditions: second compound 0.316 µM; first compound 0.1 µM; hits give low values; spheroids with HUVEC and MSC
From the text: DNA G-quadruplex Stabilizer Agents in Combinations in Complex Spheroids A high-throughput screen of multi-cell type tumor spheroids was designed to identify active combinations of DNA G-quadruplex stabilizer agents and targeted small molecules. […] Compounds. […] If the clinical Cmax for an agent had not been determined, the highest concentration tested was 10 microM. […]
Note: unit % is implicit; provide only the numeric part.

molecule="Nc1ccn(C2OC(CO)C(O)C2(F)F)c(=O)n1 (stereo not drawn) + Cc1[nH]c2ccc(F)cc2c1-c1nc2c3cccnc3c3ncccc3c2[nH]1" study_target="454973-116-R2-J3-PDC spheroids, viability, % test/control" value_type="viability, T/C" scale_unit=% number=15.8
molecule="Nc1ccn(C2OC(CO)C(O)C2(F)F)c(=O)n1 (stereo not drawn) + Cc1cnc(CNC(=O)c2c(=O)c3ccc(N4CCCN(C)CC4)nc3n3c2sc2ccccc23)cn1" study_target="454973-116-R2-J3-PDC spheroids, viability, % test/control" value_type="viability, T/C" scale_unit=% number=19.5
molecule="O=c1[nH]cc(F)c(=O)[nH]1 + Cc1[nH]c2ccc(F)cc2c1-c1nc2c3cccnc3c3ncccc3c2[nH]1" study_target="454973-116-R2-J3-PDC spheroids, viability, % test/control" value_type="viability, T/C" scale_unit=% number=110
molecule="CC1COCCN1c1cc(-c2ccnn2C)c2ccnc(-c3ccn[nH]3)c2n1 (stereo not drawn) + Cc1[nH]c2ccc(F)cc2c1-c1nc2c3cccnc3c3ncccc3c2[nH]1" study_target="454973-116-R2-J3-PDC spheroids, viability, % test/control" value_type="viability, T/C" scale_unit=% number=65.8
molecule="COc1ncnc(C2CC2)c1-c1ncc2cnn(Cc3ccc(-c4nc(C(F)(F)F)cn4C(C)C)cc3)c2n1 + Cc1[nH]c2ccc(F)cc2c1-c1nc2c3cccnc3c3ncccc3c2[nH]1" study_target="454973-116-R2-J3-PDC spheroids, viability, % test/control" value_type="viability, T/C" scale_unit=% number=111
molecule="COc1cc(C2c3cc4c(cc3C(OC3OC5COC(C)OC5C(O)C3O)C3COC(=O)C23)OCO4)cc(OC)c1O (stereo not drawn) + Cc1cnc(CNC(=O)c2c(=O)c3ccc(N4CCCN(C)CC4)nc3n3c2sc2ccccc23)cn1" study_target="454973-116-R2-J3-PDC spheroids, viability, % test/control" value_type="viability, T/C" scale_unit=% number=73.9
molecule="CCCS(=O)(=O)Nc1ccc(F)c(C(=O)c2c[nH]c3ncc(-c4ccc(Cl)cc4)cc23)c1F + Cc1cnc(CNC(=O)c2c(=O)c3ccc(N4CCCN(C)CC4)nc3n3c2sc2ccccc23)cn1" study_target="454973-116-R2-J3-PDC spheroids, viability, % test/control" value_type="viability, T/C" scale_unit=% number=73.4
molecule="CC1COCCN1c1cc(C2(O)CC3CCC(C2)O3)c2cnn(-c3ccn[nH]3)c2n1 (stereo not drawn) + Cc1[nH]c2ccc(F)cc2c1-c1nc2c3cccnc3c3ncccc3c2[nH]1" study_target="454973-116-R2-J3-PDC spheroids, viability, % test/control" value_type="viability, T/C" scale_unit=% number=66.4
molecule="C=CCn1c(=O)c2cnc(Nc3ccc(N4CCN(C)CC4)cc3)nc2n1-c1cccc(C(C)(C)O)n1 + CN(C)c1ccc(Nc2c3ccc(NC(=O)CCN4CCCC4)cc3nc3cc(NC(=O)CCN4CCCC4)ccc23)cc1" study_target="454973-116-R2-J3-PDC spheroids, viability, % test/control" value_type="viability, T/C" scale_unit=% number=90.7
molecule="COc1cccc2c1C(=O)c1c(O)c3c(c(O)c1C2=O)CC(O)(C(=O)CO)CC3OC1CC(N)C(O)C(C)O1 (stereo not drawn) + Cc1cnc(CNC(=O)c2c(=O)c3ccc(N4CCCN(C)CC4)nc3n3c2sc2ccccc23)cn1" study_target="454973-116-R2-J3-PDC spheroids, viability, % test/control" value_type="viability, T/C" scale_unit=% number=52.3

Q: Recorded viability, T/C for CCCS(=O)(=O)Nc1ccc(F)c(C(=O)c2c[nH]c3ncc(-c4ccc(Cl)cc4)cc23)c1F + Cc1[nH]c2ccc(F)cc2c1-c1nc2c3cccnc3c3ncccc3c2[nH]1 , please?
A: 107

Q: Recorded viability, T/C for CC(C)n1c(=O)n(C)c2cnc3cc(F)c(-c4ccc(OCCCN5CCCCC5)nc4)cc3c21 + Cc1[nH]c2ccc(F)cc2c1-c1nc2c3cccnc3c3ncccc3c2[nH]1 , please?
A: 99

Q: Recorded viability, T/C for C=CCn1c(=O)c2cnc(Nc3ccc(N4CCN(C)CC4)cc3)nc2n1-c1cccc(C(C)(C)O)n1 + Cc1[nH]c2ccc(F)cc2c1-c1nc2c3cccnc3c3ncccc3c2[nH]1 , please?
A: 99
